// fold induction at 0.3 µM lookup, one value per entry
- Tested on: primary human total T-cells
- PROTOCOL: T-cell activation, IL-2 secretion, Biological Example 2
- Assay type: cell-based
- PARTICULARS: anti-CD3 and anti-CD28 co-stimulation, 48 hours, 0.3 μM inhibitor, fold change over baseline

>  <COMPOUND>
Cn1cnnc1C[C@]1(c2cccc(N3Cc4c(cc(CN5CCC6C(C5)C6(F)F)cc4C(F)(F)F)C3=O)c2)C[C@H](C#N)C1 (stereo partly drawn) [Compound 27]

>  <TARGET DESC>
primary human total T-cells

>  <fold induction at 0.3 µM>
≤ 15

$$$$
>  <COMPOUND>
Cn1cnnc1C[C@]1(c2cccc(N3Cc4c(cc(CN5CCCCC(F)(F)C5)cc4C(F)(F)F)C3=O)c2)C[C@H](C#N)C1 [Compound 50]

>  <TARGET DESC>
primary human total T-cells

>  <fold induction at 0.3 µM>
> 20

$$$$
>  <COMPOUND>
CCC1COCCN(Cc2cc3c(c(C(F)(F)F)c2)CN(c2cccc([C@]4(Cc5nncn5C)C[C@@H](C#N)C4)c2)C3=O)C1 (stereo partly drawn) [Compound 43]

>  <TARGET DESC>
primary human total T-cells

>  <fold induction at 0.3 µM>
≤ 15

$$$$
>  <COMPOUND>
COCC1CCCCN(Cc2cc3c(c(C(F)(F)F)c2)CN(c2cccc([C@]4(Cc5nncn5C)C[C@@H](C#N)C4)c2)C3=O)C1 (stereo partly drawn) [Compound 45]

>  <TARGET DESC>
primary human total T-cells

>  <fold induction at 0.3 µM>
≤ 15

$$$$
>  <COMPOUND>
Cn1cnnc1C[C@]1(c2cccc(N3Cc4c(cc(CNC5CC6C(C5)C6(F)F)cc4C(F)(F)F)C3=O)c2)C[C@H](C#N)C1 (stereo partly drawn) [Compound 12]

>  <TARGET DESC>
primary human total T-cells

>  <fold induction at 0.3 µM>
15 to 20

$$$$
>  <COMPOUND>
Cn1cnnc1C[C@]1(c2cccc(N3Cc4c(cc(CN[C@H]5CCC(F)(F)C5)cc4C(F)(F)F)C3=O)c2)C[C@H](C#N)C1 [Compound 20]

>  <TARGET DESC>
primary human total T-cells

>  <fold induction at 0.3 µM>
> 20

$$$$
>  <COMPOUND>
Cn1cnnc1C[C@]1(c2cccc(N3Cc4c(cc(CN5CCC6CCC(C5)O6)cc4C(F)(F)F)C3=O)c2)C[C@H](C#N)C1 (stereo partly drawn) [Compound 37]

>  <TARGET DESC>
primary human total T-cells

>  <fold induction at 0.3 µM>
≤ 15

$$$$
>  <COMPOUND>
C[C@@H]1CN(Cc2cc3c(c(C(F)(F)F)c2)CN(c2cccc([C@]4(Cc5nncn5C)C[C@@H](C#N)C4)c2)C3=O)C[C@H](C)O1 [Compound 15]

>  <TARGET DESC>
primary human total T-cells

>  <fold induction at 0.3 µM>
≤ 15

$$$$
>  <COMPOUND>
C[C@@H]1CN(Cc2cc3c(c(C4CC4)n2)CN(c2cccc([C@]4(Cc5nncn5C)C[C@@H](C#N)C4)c2)C3=O)CCC1(F)F [Compound 42]

>  <TARGET DESC>
primary human total T-cells

>  <fold induction at 0.3 µM>
15 to 20

$$$$

Origin of values: patent US11530229B2
